Procedure text: Degradation of prodrug in rat plasma (release of dexmedetomidine, HPLC)
Type: in vitro ADME
Assay setup: 37° C., 10 min
Counter-ions that a name gives are not always drawn.
compounds and their reported Degradation rate of prodrug %

Below are worked cases with known answers.
{"columns": ["Compound", "Degradation rate of prodrug %"],
 "data": [
  ["CC(=O)OC(C)n1cnc([C@@H](C)c2cccc(C)c2C)c1 (stereo partly drawn) [Compound 17-HCl]", "39%"],
  ["COC(=O)CCC(=O)OCn1cnc([C@@H](C)c2cccc(C)c2C)c1 [Compound 25-HCl]", "68%"],
  ["Cc1cccc([C@H](C)c2cn(COP(=O)(O)O)cn2)c1C", "35%"]
]}

Prompt: Fill in: Degradation rate of prodrug % of CCOC(=O)CCC(=O)OCn1cnc([C@@H](C)c2cccc(C)c2C)c1 [Compound 27-HCl] is ___
Completion: 86%

Prompt: Fill in: Degradation rate of prodrug % of Cc1cccc([C@H](C)c2cn(C(=O)OC(C)C)cn2)c1C [Compound 5-HCl] is ___
Completion: 98%

Prompt: Fill in: Degradation rate of prodrug % of COC(=O)COC(=O)OCn1cnc([C@@H](C)c2cccc(C)c2C)c1 [Compound 23-HCl] is ___
Completion: 27%

Prompt: Fill in: Degradation rate of prodrug % of CCOC(=O)OCn1cnc([C@@H](C)c2cccc(C)c2C)c1 [Compound 6-HCl] is ___
Completion: 100%

Prompt: Fill in: Degradation rate of prodrug % of Cc1cccc([C@H](C)c2cn(COC(=O)C3CC3)cn2)c1C [Compound 15-HCl] is ___
Completion: 94%

Prompt: Fill in: Degradation rate of prodrug % of CCCOC(=O)n1cnc([C@@H](C)c2cccc(C)c2C)c1 [Compound 11-HCl] is ___
Completion: 88%
